target: Focal adhesion kinase 1 (Homo sapiens) (UniProt Q05397); assay: small-molecule microarray binders of FAK, primary screen, biochemical, 635/667 nm fluorescence, BSA, DTT (AID 1130); settings: PTK2 binding, 635 nm fluorescence, higher = more signal;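 further: composite of spot emission at 667 nm and signal to noise over triplicate slides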
Sequence (Q05397 whole entry, looked up): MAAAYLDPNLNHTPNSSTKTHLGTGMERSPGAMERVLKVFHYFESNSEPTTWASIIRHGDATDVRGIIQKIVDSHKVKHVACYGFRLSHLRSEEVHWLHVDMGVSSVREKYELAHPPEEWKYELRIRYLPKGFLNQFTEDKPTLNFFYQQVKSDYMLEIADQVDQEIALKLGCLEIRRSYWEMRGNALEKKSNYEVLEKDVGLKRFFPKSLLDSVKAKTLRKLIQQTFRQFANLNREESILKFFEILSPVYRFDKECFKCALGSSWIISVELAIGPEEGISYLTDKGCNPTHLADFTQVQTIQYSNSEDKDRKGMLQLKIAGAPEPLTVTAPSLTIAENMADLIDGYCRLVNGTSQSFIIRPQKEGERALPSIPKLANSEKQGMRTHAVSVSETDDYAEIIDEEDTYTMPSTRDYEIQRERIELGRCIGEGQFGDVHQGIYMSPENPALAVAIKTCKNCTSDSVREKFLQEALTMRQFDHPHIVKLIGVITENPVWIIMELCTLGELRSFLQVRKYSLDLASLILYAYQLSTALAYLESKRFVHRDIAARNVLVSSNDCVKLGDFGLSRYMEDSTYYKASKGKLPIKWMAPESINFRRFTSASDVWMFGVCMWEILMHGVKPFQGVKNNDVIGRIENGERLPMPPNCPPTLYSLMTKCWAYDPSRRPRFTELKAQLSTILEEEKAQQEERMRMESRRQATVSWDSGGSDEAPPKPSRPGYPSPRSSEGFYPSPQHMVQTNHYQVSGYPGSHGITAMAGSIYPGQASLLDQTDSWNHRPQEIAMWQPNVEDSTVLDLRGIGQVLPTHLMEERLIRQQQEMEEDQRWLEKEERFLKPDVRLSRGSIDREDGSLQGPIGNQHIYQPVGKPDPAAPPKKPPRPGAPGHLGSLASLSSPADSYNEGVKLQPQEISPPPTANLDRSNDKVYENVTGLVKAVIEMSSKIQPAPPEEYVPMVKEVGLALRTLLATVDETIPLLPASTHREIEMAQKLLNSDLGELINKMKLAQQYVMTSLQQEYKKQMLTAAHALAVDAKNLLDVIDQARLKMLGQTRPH
Quick list: composite z-score per entry.
Please state the value as a number alone, without comment.

CCOC(=O)C1=CCC(c2cc3ccccc3[nH]2)N(S(=O)(=O)c2ccccc2[N+](=O)[O-])C1 (stereo not given) : 0.501
CCCC=C(CCC)[C@@H](NC(=O)c1ccccc1)c1ccc(C(=O)OC)cc1 : -0.17
C=C(COC)/C(=C/C[C@@H](OC(C)=O)c1ccccc1OCCO)c1cc(C(=O)OC)ccc1OC : -0.102
COC(=O)[C@@]1(CCC(=O)OC(C)(C)C)N=C(c2ccc(OCCCO)cc2)O[C@H]1c1ccccc1CN=[N+]=[N-] : -0.0599
CCCC=C(CCC)[C@@H](NC(=O)c1ccco1)c1ccc(C(=O)OC)cc1 : 0.601

Form field: reported composite z-score of COc1ccc([Si](C)(C)[C@H]2[C@H](CCn3cc([C@H](O)c4ccccc4)nn3)O[C@@]3(C(=O)N(c4ccccc4)c4ccccc43)[C@@H]2C)cc1
-0.4

Entry under review: O=C1N(CCS(=O)(=O)c2ccccc2)c2ccccc2[C@@H]2OC(c3ccc(OCCCO)cc3)=N[C@]12CCS(=O)(=O)c1ccccc1 . Reported composite z-score?
0.575

----------
test: basal MM1S mitochondrial membrane potential changes, profiling panel, cell-based, JC-1 fluorescence, 24 h, 100 nL compound (AID 1170); conditions: higher = more signal; further: test concentration not given here
Listing of recorded z-score by entry.
Form: value (number only, do not type unit).

Answered examples (2):
C=CCNC(=O)[C@@H]1[C@H]2C(=O)O[C@H](c3ccccc3)[C@H](c3ccccc3)N2[C@H](c2ccccc2OCCO)[C@@]12C(=O)N(C(=O)OCCOC)c1ccc(C#CCCO)cc12 : -1.46
COC(=O)[C@@]1(Cc2ccc(OC)cc2)[C@H]2c3cc(C(=O)N(C)C)n(Cc4ccsc4Br)c3C[C@H]2CN1C(=O)c1ccccc1 : -0.468

API: the following record is the query input.
Which z-score is reported for this molecule? CC1CC/C=C\[C@H]2OC34C=CCN(CCN5CCOCC5)C(=O)[C@H]3N(CCCCCCO)C(=O)[C@@H]4C2C(=O)O1 (stereo partly drawn)
0.606

----------
experiment: CREB reporter modulators without forskolin, primary screen, cell-based, PC12, CRE-LacZ reporter, unstimulated (AID 1145); conditions: no forskolin, luminescence, 4.5 h, called active from +8 up or from −8 down
Active and inactive are the calls of the source.
Choose one outcome from this list and give only that: Y for active, N for inactive

Look over these answered cases.
CCOC(=O)C[C@H]1[C@H](OC(=O)c2cc3ccccc3oc2=O)[C@@H](NC(=O)C2CCCCC2)c2cc(OCCCO)ccc2N1C(=O)Cc1ccc(OC)cc1 : N
COCCOC(=O)N1C(=O)[C@@]2(c3cc(C#Cc4ccc(OC)cc4)ccc31)[C@H](C(=O)N1CCCCCCC1)[C@H]1C(=O)O[C@H](c3ccccc3)[C@H](c3ccccc3)N1[C@@H]2c1ccccc1OCCO : N
CCCCCCc1nc(-c2ccc(OC)nc2)cc2c1[Si](C(C)C)(C(C)C)OC2 : N
CCCCC(=C=CC[C@@H](O)c1ccc(OCCO)cc1)C[C@@H](O)c1ccccn1 : Y
O=C1OCCC=C[C@H]2OC34C=CCN(c5ccc(Cl)cc5)C(=O)[C@H]3N(CCO)C(=O)[C@@H]4C12 (some centres not stated) : N
COCCCNC(=O)[C@@]1(Sc2ccc(C)cc2)CC(=O)N(C2CCCCC2)[C@@H]1c1ccc(CO)cc1I : N

// next entry
Per the records of this test, what outcome belongs to C=CCC(OC(C)=O)[C@@H]1[C@@H](N(Cc2cc3ccccc3o2)C(=O)Cc2ccc(OC)cc2)c2cc(OCCCO)ccc2N1C(=O)Cc1ccc(OC)cc1 (some centres not stated) ?
N

----------
target: Neurogenic locus notch homolog protein 2 (Homo sapiens); test: Notch2 binders on small-molecule microarrays, primary screen, biochemical, small-molecule microarray, 635 nm fluorescence, stem cell growth factors (AID 1073); details: Notch2 binding, higher = more signal
Catalogue of composite z-score values
No unit in the answer, only the number.

O=C1NC(=O)C2C1C=CC(C(O)c1ccc(F)cc1)N2Nc1ccccn1 (stereo not given) : 0.999
COC(=O)[C@@]1(CCC(=O)OC(C)(C)C)N=C(c2ccc(OCCCO)cc2)O[C@H]1c1ccccc1CN=[N+]=[N-] : -0.066
CCCCN1CC=CC23O[C@@H]4C=CCOC(=O)[C@@H]4[C@H]2C(=O)N(CCO)[C@@H]3C1=O (stereo not given in full) : -1.39

I'd like to know its composite z-score. The compound in question is CCCCC(O)C1C=CC2C(=O)NC(=O)C2N1Nc1ccccn1 (stereo not given)
0.949

Sample [N-]=[N+]=NCc1ccccc1C[C@]1(C(=O)N2CCOCC2)N=C(c2ccc(OCCCO)cc2)O[C@H]1c1ccccc1CN=[N+]=[N-] — what was its composite z-score?
1.42

What value of composite z-score has been reported for the following compound? CCCC[C@@H]1C[C@H]1[C@@H](NC(=O)Cc1ccccc1)c1ccc(Cl)cc1
1.63

----------
molecular target: Neurogenic locus notch homolog protein 3 (Homo sapiens); experiment: NOTCH3 binders on small-molecule microarray, primary screen, biochemical, 635/667 nm fluorescence (AID 1096); conditions: NOTCH3 binding, 635 nm fluorescence, higher = more signal
Answer N if composite z-score is under 0.2, and Y if it is 0.2 or more.

Look over these answered cases.
O=C1C2C=CC(C(O)c3cccs3)N(Nc3ccccc3)C2C(=O)N1c1ccccc1 (centres undefined) : Y
NC(=O)[C@@]1(CCS(=O)(=O)c2ccccc2)COC(c2ccc(OCCCO)cc2)=N1 : N
N[C@@H](Cc1ccccc1)Cn1cc(C2(O)CCCCC2)nn1 : Y
CC(C)C(=C=CC[C@@H](O)c1ccccc1OCCO)C[C@@H](O)c1cc(Cl)cc(Cl)c1O : Y

Is the recorded value of composite z-score equal to or greater than 0.2 for this compound? [N-]=[N+]=Nc1ccccc1[C@@H]1OC(c2ccc(OCCCO)cc2)=N[C@]1(Cc1ccccc1)C(N)=O
Y

API: above_or_equal(metric=composite z-score, cutoff=0.2) for item CCCCC(=C=CC[C@@H](O)c1ccc(OCCO)cc1)C[C@@H](O)c1ccccn1
Y

Reported composite z-score reaches at least 0.2 for COc1ccccc1CN1C(=O)c2ccccc2[C@@H](C(=O)NCCCN(C)C)[C@@H]1c1ccc(CO)cc1 ?
N

Could you verify whether the entry COCCOC(=O)N1C(=O)[C@@]2(c3cc(C#CCCO)ccc31)[C@H](C(=O)N1CCN(c3ncccn3)CC1)[C@H]1C(=O)O[C@H](c3ccccc3)[C@H](c3ccccc3)N1[C@@H]2c1ccc(O)cc1 shows composite z-score of no less than 0.2?
Y

Could you please find out whether O=C1NC(=O)C2C1C=CC(C(O)c1cccc(O)c1)N2Nc1ccc(Cl)cc1Cl (centres undefined) has composite z-score that meets 0.2 or exceeds it?
N

composite z-score >= 0.2 for C[C@]1(C(=O)NCC(F)(F)F)c2ccccc2C(=O)N(Cc2ccc(OC(F)(F)F)cc2)[C@H]1c1ccc(CO)cc1 ?
N

hey, is composite z-score for this one >= 0.2? COc1ccc([Si](C)(C)[C@H]2[C@H](CCO)O[C@@]3(C(=O)N(Cc4ccc(N5CCOC5=O)cc4)c4ccccc43)[C@@H]2C)cc1
Y

Does the compound C=CCC(OC(C)=O)[C@@H]1[C@@H](N(Cc2ccc(-c3cccc(C(F)(F)F)c3)o2)C(=O)c2cccc3ccccc23)c2cc(OCCCO)ccc2N1C(=O)c1ccc2ccccc2c1 (some centres undefined) have recorded composite z-score that is 0.2 or more?
N

Check this compound for composite z-score at or above 0.2: CN(C)CCCC[C@@H]1NC(=O)[C@@H]2C[C@H](C(=O)NCc3ccc(F)cc3)[C@H](c3ccc(O)cc3)N2C1=O
Y

----------
target: Dickkopf-related protein 1 (Homo sapiens) (UniProt O94907); assay: DKK1 binders on small-molecule microarrays, primary screen, biochemical, small-molecule microarray, 635 nm fluorescence scan (AID 1106); details: DKK1 binding, higher = more signal;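 further: score merges emission near 667 nm with signal to noise over three replicate slides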
Sequence (O94907 whole entry, looked up): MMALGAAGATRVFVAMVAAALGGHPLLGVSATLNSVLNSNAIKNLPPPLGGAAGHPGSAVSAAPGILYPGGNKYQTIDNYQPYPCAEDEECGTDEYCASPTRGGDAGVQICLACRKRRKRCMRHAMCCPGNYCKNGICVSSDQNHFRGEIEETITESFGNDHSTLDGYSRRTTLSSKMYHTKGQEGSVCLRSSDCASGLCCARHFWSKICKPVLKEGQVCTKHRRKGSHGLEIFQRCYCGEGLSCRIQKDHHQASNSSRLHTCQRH
REPORTED_METRIC: composite z-score
Lab note: jot the number down without any unit.

Given the molecule O=C1O[C@H](c2ccccc2)[C@H](c2ccccc2)N2[C@H]1[C@@H](C(=O)NC[C@H](O)c1ccccc1)[C@]1(C(=O)Nc3ccc(C#CCCO)cc31)[C@H]2c1ccccc1OCCO , what is its reported composite z-score?
-0.515

Looking for the measured composite z-score of C=CCNC(=O)[C@@H]1[C@H]2C(=O)O[C@H](c3ccccc3)[C@H](c3ccccc3)N2[C@H](c2ccc(O)cc2)[C@@]12C(=O)Nc1ccc(C#CC3(O)CCCCCC3)cc12 , can you help?
0.446

Can you look up the measured composite z-score of CCOC(=O)C1=CCC(c2cc3ccccc3[nH]2)N(S(=O)(=O)c2ccccc2[N+](=O)[O-])C1 (configuration not stated) for me?
-0.117
